- measurementTarget: T1, human LIV-1 (human, UniProt Q13433 29-755)
- T1 construct: whole, on cells; also called H-LIV1
- T1 sequence (looked up): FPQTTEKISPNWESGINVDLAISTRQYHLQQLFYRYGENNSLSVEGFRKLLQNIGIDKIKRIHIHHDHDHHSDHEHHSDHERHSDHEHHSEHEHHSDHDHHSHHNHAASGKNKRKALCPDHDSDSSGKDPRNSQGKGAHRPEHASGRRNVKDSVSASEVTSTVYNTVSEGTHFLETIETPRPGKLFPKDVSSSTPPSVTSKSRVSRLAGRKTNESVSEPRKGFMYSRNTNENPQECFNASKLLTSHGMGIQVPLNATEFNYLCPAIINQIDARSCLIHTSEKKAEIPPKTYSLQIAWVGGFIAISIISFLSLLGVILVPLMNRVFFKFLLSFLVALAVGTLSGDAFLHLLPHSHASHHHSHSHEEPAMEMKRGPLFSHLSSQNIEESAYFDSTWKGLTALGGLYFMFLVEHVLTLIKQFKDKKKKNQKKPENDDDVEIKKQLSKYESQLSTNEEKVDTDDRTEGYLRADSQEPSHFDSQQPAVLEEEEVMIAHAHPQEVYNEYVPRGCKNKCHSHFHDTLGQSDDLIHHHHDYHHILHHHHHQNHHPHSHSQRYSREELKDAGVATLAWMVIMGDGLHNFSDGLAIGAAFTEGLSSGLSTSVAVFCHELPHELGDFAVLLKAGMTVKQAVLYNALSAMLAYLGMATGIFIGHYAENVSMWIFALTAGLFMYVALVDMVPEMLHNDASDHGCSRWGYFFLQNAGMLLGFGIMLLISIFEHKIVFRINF
- assayExplanation: FACS, BT20/H_LIV-1 High cells
As shown below, each of these binders has a reported pEC50 value.
// pEC50 here means minus log10 of the molar concentration (mol/L)

124H4D11.p2.z4 (antibody, V domains shown) VH: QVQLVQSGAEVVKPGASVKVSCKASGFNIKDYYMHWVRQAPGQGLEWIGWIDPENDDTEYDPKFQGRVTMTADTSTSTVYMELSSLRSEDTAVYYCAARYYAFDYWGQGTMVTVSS VL: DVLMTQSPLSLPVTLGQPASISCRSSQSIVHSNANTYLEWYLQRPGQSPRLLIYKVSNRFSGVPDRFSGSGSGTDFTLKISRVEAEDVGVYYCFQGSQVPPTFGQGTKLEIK : 9.82
5D6B10.Z7 (antibody, V domains shown) VH: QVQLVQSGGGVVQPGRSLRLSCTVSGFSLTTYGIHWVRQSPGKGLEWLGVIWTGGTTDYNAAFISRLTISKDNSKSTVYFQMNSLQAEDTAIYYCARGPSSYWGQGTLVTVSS VL: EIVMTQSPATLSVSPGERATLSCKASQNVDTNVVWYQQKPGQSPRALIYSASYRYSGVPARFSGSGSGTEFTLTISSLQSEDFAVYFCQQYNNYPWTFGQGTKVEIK : 8.97
5D6B10.z7-Eribulin (antibody, V domains shown, Eribulin drug moiety conjugated; site and chain not stated, Antibody-drug conjugate of 5D6B10.z7; human gamma 1/kappa) VH: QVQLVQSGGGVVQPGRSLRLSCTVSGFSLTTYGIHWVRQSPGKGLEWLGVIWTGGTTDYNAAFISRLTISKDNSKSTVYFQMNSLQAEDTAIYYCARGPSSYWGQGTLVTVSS VL: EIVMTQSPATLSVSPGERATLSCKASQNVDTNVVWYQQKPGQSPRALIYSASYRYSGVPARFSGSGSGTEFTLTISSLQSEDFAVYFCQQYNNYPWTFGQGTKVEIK : 9.06

QUERY: Please report the measured pEC50 for 290F10G10.z2-MMAE (antibody, V domains shown, MMAE drug moiety conjugated; site and chain not stated, also called LM-001-MMAE) VH: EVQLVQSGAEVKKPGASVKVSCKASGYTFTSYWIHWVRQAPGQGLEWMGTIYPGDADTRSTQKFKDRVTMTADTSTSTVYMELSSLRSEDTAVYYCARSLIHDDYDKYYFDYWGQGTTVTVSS VL: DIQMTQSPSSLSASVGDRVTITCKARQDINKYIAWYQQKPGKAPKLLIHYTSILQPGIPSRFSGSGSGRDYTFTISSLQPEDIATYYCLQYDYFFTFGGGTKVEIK
RESULT: 9.18

QUERY: Please report the measured pEC50 for 290F10G10.z2-Eribulin (antibody, V domains shown, Eribulin drug moiety conjugated; site and chain not stated) VH: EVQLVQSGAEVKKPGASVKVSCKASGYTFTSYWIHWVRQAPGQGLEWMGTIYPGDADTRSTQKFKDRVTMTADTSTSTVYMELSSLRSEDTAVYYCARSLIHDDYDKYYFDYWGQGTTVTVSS VL: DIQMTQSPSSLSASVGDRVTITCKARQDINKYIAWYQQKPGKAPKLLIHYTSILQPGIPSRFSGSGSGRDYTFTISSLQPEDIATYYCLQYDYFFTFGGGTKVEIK
RESULT: 8.92

QUERY: Please report the measured pEC50 for 124H4D11.p2.z4-Eribulin (antibody, V domains shown, Eribulin drug moiety conjugated; site and chain not stated, Antibody-drug conjugate of 124H4D11.p2.z4; human gamma 1/kappa) VH: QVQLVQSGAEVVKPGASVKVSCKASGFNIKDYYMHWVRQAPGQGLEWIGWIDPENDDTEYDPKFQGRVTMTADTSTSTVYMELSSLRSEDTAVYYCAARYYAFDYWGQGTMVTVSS VL: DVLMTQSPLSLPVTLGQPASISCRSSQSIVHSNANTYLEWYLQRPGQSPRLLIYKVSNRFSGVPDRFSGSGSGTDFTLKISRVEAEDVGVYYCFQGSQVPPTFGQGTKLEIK
RESULT: 10.00
